B1: CPEB3 Ribozyme (parent)
chain: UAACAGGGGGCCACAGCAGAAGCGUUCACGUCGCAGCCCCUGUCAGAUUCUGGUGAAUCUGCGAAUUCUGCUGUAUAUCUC

Variants of: B1
Assay: self-cleavage, relative activity (ratio to wild type); higher = more cleavage; in vitro, sequencing
Measured self-cleavage values are reported for all entries that follow.
The reply should be a number, written without any unit.

The variant UAACAGUGGGCCACAGCAGAAGCGUUCACGUCGCAGCCUCUGUCAGAUUCUGGUGAAUCUGCGAAUUCUGCUGUAUAUCUC [G7U C39U] showed self-cleavage equal to 0.19

More entries:
The variant UAACAGGGGGCCACAGCAGAAGCGUUCACGUCGCAGCCCCUGUCAGAUCCUGGUGAAUCUGCGGAUUCUGCUGUAUAUCUC [U49C A64G] showed self-cleavage equal to 0.27

The variant UAACGGGGGGCCACAGCAGAAGCGUUCACGUCGCAGCCCCUGUCAGAUUCUGGUAAAUCUGCGAAUUCUGCUGUAUAUCUC [A5G G55A] showed self-cleavage equal to 0.37

The variant UAACAGGGGGCCACAGCGGAAGCGUUCACGUCGCAGCCCCUGUCAGAUUCUGGUGAAGCUGCGAAUUCUGCUGUAUAUCUC [A18G U58G] showed self-cleavage equal to 0.28

The variant UAACAGGGGGCCACAGCAGAAGCGUUCACGUCGCAGACCCUGUCAGAUUCUGGUGAAUCUGCGAAUUCUGCUGUAUACCUC [C37A U78C] showed self-cleavage equal to 0.35

The variant UAACAGGGGGCCACAGCAGAAGCGUUCACGUCGCAGCCACUGUCAGAUUCUGGUGUAUCUGCGAAUUCUGCUGUAUAUCUC [C39A A56U] showed self-cleavage equal to 0.09

The variant UAACAGGGGGCCACAGCAGAAGCGUUCACGUCGCAGCCACUGUCAGAUUCUGGUGAAUCUGCGAAUUCUGCAGUAUAUCUC [C39A U72A] showed self-cleavage equal to 0.35

The variant UAACAGGGGGCCACAGCAGAAGCGUUCACGUCGCAGCCCCUGUCAGAUUCUUGUGAAUCUGCGAAUCCUGCUGUAUAUCUC [G52U U67C] showed self-cleavage equal to 0.32

The variant UAACAGGGGGCCACAGCAGAAGCGUUCACGUCACAGCCCCUGUCAGAUUCUGGUGAAUCUGCGACUUCUGCUGUAUAUCUC [G33A A65C] showed self-cleavage equal to 0.11

The variant UAACAGGGGGCCACAGAAGAAGCGUUCACGUCGCAGCCCCUGUCAGAUCCUGGUGAAUCUGCGAAUUCUGCUGUAUAUCUC [C17A U49C] showed self-cleavage equal to 0.19

The variant UAACAAGGGGCCACAGCAGAAGCGUUCACGUCGCAGCCCCUGUCAGAUUCUGGUGAAUCUGCGAAUUCUGCUGUAUACCUC [G6A U78C] showed self-cleavage equal to 0.24

The variant UAACAGGGGGCCACAGCAGAAGCGUUCACGUCGCAGCCCCAGCCAGAUUCUGGUGAAUCUGCGAAUUCUGCUGUAUAUCUC [U41A U43C] showed self-cleavage equal to 0.27

The variant UAACAGGGGGCCCCAGCAGAAGCGUCCACGUCGCAGCCCCUGUCAGAUUCUGGUGAAUCUGCGAAUUCUGCUGUAUAUCUC [A13C U26C] showed self-cleavage equal to 0.51

The variant UAACAGGGGGCCACCGCAGAAGCGUUCACGUCGCAGCCCCUGUCAGAUUCCGGUGAAUCUGCGAAUUCUGCUGUAUAUCUC [A15C U51C] showed self-cleavage equal to 0.68

The variant UAACAGGGGGCCACAGCAGAAGCGUUCACGUCGCAGUCCCUGUCAGAUUCUGGUGAAUCUGCGAAUUCUACUGUAUAUCUC [C37U G70A] showed self-cleavage equal to 0.32

The variant UAACAGGGUGCCACAGCAGAAGCGUUCACGUCGCAGCCCCUGUCAGAUUCUGGUGAAUCUGCGAAUUCUGCUGUACAUCUC [G9U U76C] showed self-cleavage equal to 0.13

The variant UAACAGGGGGCCACAGCAGAAGCGUUCACGUCGCAGCCCCUGUCAGAUUAUGGUGAAUCUGCGAAUACUGCUGUAUAUCUC [C50A U67A] showed self-cleavage equal to 0.38

The variant UAACAGGGGGCUACAGCAGAAGCGUUCUCGUCGCAGCCCCUGUCAGAUUCUGGUGAAUCUGCGAAUUCUGCUGUAUAUCUC [C12U A28U] showed self-cleavage equal to 1.12

The variant UAACAGGGGGCCACAGCAGAAGCGUUCACGUCGCAGCCCCUGUCAGAUUCUGGUGAAUCUGCAAAUUCUGCUGUAUAUCCC [G63A U80C] showed self-cleavage equal to 0.93

The variant UCACAGGGGGCCACAGCAGAAGCGUUCACGCCGCAGCCCCUGUCAGAUUCUGGUGAAUCUGCGAAUUCUGCUGUAUAUCUC [A2C U31C] showed self-cleavage equal to 0.63

The variant UAACAGGGGGCCACAGCAGAAGCGGUCACGUCGUAGCCCCUGUCAGAUUCUGGUGAAUCUGCGAAUUCUGCUGUAUAUCUC [U25G C34U] showed self-cleavage equal to 0.15

The variant UAACAGGGGGCCACAGCAGAAGCGUUCACGUCGCAGCCCCUGUCAGAUUCUGGUGAAUCUGCGAGUUCUGCUGUAUAACUC [A65G U78A] showed self-cleavage equal to 0.6

The variant UAACAGGGGGCCGCAGCAGAAGCGUUCACGUCGCAGCCCCUGUCAGAUUCAGGUGAAUCUGCGAAUUCUGCUGUAUAUCUC [A13G U51A] showed self-cleavage equal to 0.91

The variant UAACAGGGGGCCACUGCAGAAGCGUUCACGUCGCAGCUCCUGUCAGAUUCUGGUGAAUCUGCGAAUUCUGCUGUAUAUCUC [A15U C38U] showed self-cleavage equal to 0.67

The variant UAACAGGGGUCCACAGCAGAAGCGUUCACGUCGCAGCCCCAGUCAGAUUCUGGUGAAUCUGCGAAUUCUGCUGUAUAUCUC [G10U U41A] showed self-cleavage equal to 0.22
